TGT: human dopamine receptor subtype hD4.4 (Homo sapiens)
Construct: expressed in transfected cells; host or cells: CHO
Sequence (P21917 whole entry): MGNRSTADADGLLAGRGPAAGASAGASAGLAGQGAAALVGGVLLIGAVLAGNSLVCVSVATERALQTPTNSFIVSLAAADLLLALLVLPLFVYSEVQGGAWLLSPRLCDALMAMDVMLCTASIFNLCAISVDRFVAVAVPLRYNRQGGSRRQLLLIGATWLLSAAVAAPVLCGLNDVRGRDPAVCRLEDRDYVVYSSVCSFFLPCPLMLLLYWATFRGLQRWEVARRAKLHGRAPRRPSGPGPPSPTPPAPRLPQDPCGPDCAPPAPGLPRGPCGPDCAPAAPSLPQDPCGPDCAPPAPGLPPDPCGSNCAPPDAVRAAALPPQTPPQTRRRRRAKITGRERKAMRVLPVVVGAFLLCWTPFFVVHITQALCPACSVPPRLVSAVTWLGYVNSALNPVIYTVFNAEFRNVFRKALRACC
TEST PROTOCOL: Receptor binding assay, [3H]spiperone competition, CHO cell membranes
CONDITION NOTES: vs p5-HT1a
Method: Receptor binding data were determined when performing competition binding assays with membrane preparations of cloned cells (stably transfected Chinese Hamster Ovary cells (CHO)) expressing the human receptors and the following radioligands: [^3H]spiperone at the human dopamine receptor subtypes hD2long, hD2short, D3, and hD4.4. […]. Selectivity ratios were calculated by division of the Ki values of the various compounds at the respective receptors through the Ki values at the 5HT1a receptor.
Please note: selectivity ratio hD4.4 exactly at 300 is no (0). Only values below 300 get yes (1).

COMPOUND: CCCN(CCc1cccs1)[C@@H]1CCc2cccc(O)c2C1
ASSIGNED CATEGORY: yes (1)

COMPOUND: CCCN(CCc1cccs1)C1CCc2cccc(O)c2C1 (centres unmarked)
ASSIGNED CATEGORY: yes (1)

COMPOUND: CCCN(CCc1cc2ccc1CCc1ccc(cc1)CC2)C1CCc2cccc(OC)c2C1 (centres unmarked)
ASSIGNED CATEGORY: yes (1)

COMPOUND: CCCN(CCc1cccs1)[C@H]1CCc2cccc(O)c2C1
ASSIGNED CATEGORY: no (0)

Please state whether selectivity ratio hD4.4 is below 300 for CCCN(CCc1ccccc1)C1CCc2cccc(O)c2C1 (centres unmarked) no (0)

Repeat for the following compound: CCCN(CCc1cc2ccc1CCc1ccc(cc1)CC2)C1CCc2cccc(O)c2C1 (centres unmarked) yes (1)

Repeat for the following compound: CCCN(CCc1ccc(O)cc1)C1CCc2cccc(O)c2C1 (centres unmarked) no (0)

Repeat for the following compound: CCCN(CCc1cc(C)ccc1C)C1CCc2cccc(O)c2C1 (centres unmarked) yes (1)

----------
Entries and their pEC50 values follow.
TGT: human 5-HT1a receptor (Homo sapiens, UniProt P08908)
Construct: expressed in transfected cells
Sequence (P08908 whole entry): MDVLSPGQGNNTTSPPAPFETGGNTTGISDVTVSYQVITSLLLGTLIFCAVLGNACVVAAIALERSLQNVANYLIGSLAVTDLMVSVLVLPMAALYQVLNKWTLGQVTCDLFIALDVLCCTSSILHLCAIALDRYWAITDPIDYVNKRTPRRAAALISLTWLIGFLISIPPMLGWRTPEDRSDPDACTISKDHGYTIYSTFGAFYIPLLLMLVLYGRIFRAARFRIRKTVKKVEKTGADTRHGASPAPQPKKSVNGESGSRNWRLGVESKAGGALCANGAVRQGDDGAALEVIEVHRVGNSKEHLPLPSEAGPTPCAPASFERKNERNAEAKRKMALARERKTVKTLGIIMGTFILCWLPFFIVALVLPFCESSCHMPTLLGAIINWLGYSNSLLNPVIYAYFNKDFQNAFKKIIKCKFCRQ
TEST PROTOCOL: [35S]GTPγS functional assay
Type: biochemical
CONDITION NOTES: mean values of 2-8 individual experiments
In simple prose, pEC50 is minus the logarithm base ten of a concentration in moles per litre.

COMPOUND: CCCN(CCc1cccs1)C1CCc2cccc(OC)c2C1 (centres unmarked) [Compound 2]
pEC50: 8.20

Field: next compound
Identify the measured pEC50 of CCCN(CCc1cccs1)[C@@H]1CCc2cccc(OC)c2C1 [Compound 2a] for human 5-HT1a receptor (Homo sapiens, UniProt P08908). 8.96

----------
TGT: human dopamine receptor subtype hD2short (Homo sapiens)
Sequence (P14416 1-414 isoform P14416-2): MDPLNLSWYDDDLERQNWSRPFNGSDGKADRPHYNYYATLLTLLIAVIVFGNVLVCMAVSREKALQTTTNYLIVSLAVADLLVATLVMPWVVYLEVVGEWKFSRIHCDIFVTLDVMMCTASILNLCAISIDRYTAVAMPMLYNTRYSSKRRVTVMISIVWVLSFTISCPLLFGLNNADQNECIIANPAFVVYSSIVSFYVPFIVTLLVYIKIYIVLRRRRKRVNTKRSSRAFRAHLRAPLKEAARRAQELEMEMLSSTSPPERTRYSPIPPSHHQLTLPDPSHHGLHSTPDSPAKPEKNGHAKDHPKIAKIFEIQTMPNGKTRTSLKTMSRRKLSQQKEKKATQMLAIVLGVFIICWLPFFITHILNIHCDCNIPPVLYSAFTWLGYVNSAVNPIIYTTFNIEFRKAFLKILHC
Entries and their Ki values follow.
Could you give me the number in nM? Just the number is fine.

Recorded Ki, per entry:
COMPOUND: CCCN(CCc1cccs1)[C@H]1CCc2cccc(O)c2C1 [Compound 1b]
METRIC NAME: Ki
MEASUREMENT: 290

COMPOUND: CCCN(CCc1cccs1)C1CCc2cccc(O)c2C1 (centres unmarked) [Compound 1]
METRIC NAME: Ki
MEASUREMENT: 260

COMPOUND: CCCN(CCc1ccccc1)C1CCc2cccc(OC)c2C1 (centres unmarked) [Compound 4]
METRIC NAME: Ki
MEASUREMENT: 230

Fill blank: measured Ki of the compound CCCN(CCc1cccs1)C1CCc2cccc(OC)c2C1 (centres unmarked) [Compound 2] is ____. 390

Repeat for the following compound: CCCN(CCc1cc2ccc1CCc1ccc(cc1)CC2)C1CCc2cccc(OC)c2C1 (centres unmarked) [Compound 14] 35

Hey, just so you know, these numbers are from patent US8586603B2.
